- measurement.notes: Octanol-PBS partition coefficient
- Format: physicochemical
- conditions.used: n-octanol/PBS, pH 7.4
property.name: logD
Format: numeric value only, no unit, no commentary.

Challenge: Look up logD: `CC(C)[C@H](CO)Nc1nc(Nc2ccc(C(=O)O)c(Cl)c2)c2ncn(C(C)C)c2n1`
Response given: 0.15

Source of measurements: paper PMC3495823
